System: HT29 human large intestine cell line
Assay: Growth inhibition test (MTT) for cytotoxic properties on tumour cell lines
Type: cell-based
Conditions: HT29 cells, growth checked after day 6, read-out: IC50 of the cytotoxic action on tumour cell lines, HT29
pIC50: −log10 of the molar value. *1 amine or outer side, *2 acyl side, *3 side chain or, on linkers, in order; H or OH if unused. Where a SMILES comes first, the peptide text is derived from it. [ ]: non-standard residue; d: D form. The star is where a group is joined. X1 = CO[C@H]1[C@@H](O)[C@@H](C)OC(Oc2ccc(NC(=S)*)cc2)[C@H]1O; X2 = CC[C@@]1(O*)C(=O)OCc2c1cc1n(c2=O)Cc2cc3ccccc3nc2-1; X3 = CO[C@H]1[C@@H](O)[C@@H](C)OC(Oc2ccc(N*)cc2)[C@H]1O; CO = O=C([*:1])[*:2]
measurement name: pIC50

compound="CC[C@@]1(OC(=O)[C@H](NC(=O)[C@@H](Cc2c[nH]c3ccccc23)NC(=O)[C@@H](CC(C)C)NC(=O)CNC(=O)[C@H](CC(C)C)NC(=O)[C@H]2CCCN2C(=S)Nc2ccc(OC3O[C@H](C)[C@H](O)[C@H](OC)[C@@H]3O)cc2)C(C)C)C(=O)OCc2c1cc1n(c2=O)Cc2cc3ccccc3nc2-1 (stereo partly drawn) [Example 9] (X1-[dP]LG[dL][dW][dV]-X2)" recorded_value=6.52
compound="CC[C@@]1(OC(=O)[C@H](NC(=O)[C@@H](Cc2c[nH]cn2)NC(=O)[C@@H](CC(C)C)NC(=O)CNC(=O)[C@H](CC(C)C)NC(=O)[C@H]2CCCN2C(=O)Nc2ccc(OC3O[C@H](C)[C@H](O)[C@H](OC)[C@@H]3O)cc2)C(C)C)C(=O)OCc2c1cc1n(c2=O)Cc2cc3ccccc3nc2-1.Cl (stereo partly drawn) [Example 4] ({X3-CO}-[dP]LG[dL][dH][dV]-X2)" recorded_value=7.40
compound="CC[C@@]1(OC(=O)[C@H](NC(=O)[C@@H](Cc2c[nH]cn2)NC(=O)[C@@H](CC(C)C)NC(=O)CNC(=O)[C@H](CC(C)C)NC(=O)[C@H]2CCCN2C(=S)Nc2ccc(OC3O[C@H](C)[C@H](O)[C@H](OC)[C@@H]3O)cc2)C(C)C)C(=O)OCc2c1cc1n(c2=O)Cc2cc3ccccc3nc2-1 (stereo partly drawn) [Example 11] (X1-[dP]LG[dL][dH][dV]-X2)" recorded_value=7.10

====

System: HT29 human large intestine cell line
Assay: Growth inhibition test (MTT) for cytotoxic properties on tumour cell lines
Assay type: cell-based
Details: HT29 cells, growth checked after day 6, read-out: IC50 of the cytotoxic action on tumour cell lines, HT29
*1 amine or outer side, *2 acyl side, *3 side chain or, on linkers, in order; H or OH if unused. Where a SMILES comes first, the peptide text is derived from it. [ ]: non-standard residue; d: D form. The star is where a group is joined. ξ: configuration not given here. Camptothecin(20R,20-O) = CC[C@]1(O*)C(=O)OCc2c1cc1n(c2=O)Cc2cc3ccccc3nc2-1; X4 = CO[C@H]1[C@H](O)[C@@H](Oc2ccc(NC(=S)*)cc2)O[C@@H](C)[C@H]1O; X6 = CO[C@@H]1[C@H](O)[C@H](Oc2ccc(NC(=S)*)cc2)O[C@H](C)[C@@H]1O; X1 = CO[C@H]1[C@@H](O)[C@@H](C)OC(Oc2ccc(NC(=S)*)cc2)[C@H]1O; X2 = CC[C@@]1(O*)C(=O)OCc2c1cc1n(c2=O)Cc2cc3ccccc3nc2-1; X3 = CO[C@H]1[C@@H](O)[C@@H](C)OC(Oc2ccc(N*)cc2)[C@H]1O; Ile(3ξ) = CCC(C)[C@H](N)C(=O)O; CO = O=C([*:1])[*:2]
Some compounds, each annotated with its measured IC50.
measurement name: IC50 (nM)

compound="CCC(C)[C@H](NC(=O)[C@H](CC(C)C)NC(=O)CNC(=O)[C@H](CC(C)C)NC(=O)[C@@H]1CCCN1C(=S)Nc1ccc(O[C@H]2O[C@@H](C)[C@@H](O)[C@@H](OC)[C@@H]2O)cc1)C(=O)N[C@H](C(=O)O[C@]1(CC)C(=O)OCc2c1cc1n(c2=O)Cc2cc3ccccc3nc2-1)C(C)C (stereo partly drawn) [Example 18] (X4-PLGL[Ile(3ξ)]V-X2)" measurement_name=IC50 recorded_value=200
compound="CC[C@@]1(OC(=O)[C@H](NC(=O)[C@@H](CC(N)=O)NC(=O)[C@@H](CC(C)C)NC(=O)CNC(=O)[C@H](CC(C)C)NC(=O)[C@H]2CCCN2C(=O)Nc2ccc(OC3O[C@H](C)[C@H](O)[C@H](OC)[C@@H]3O)cc2)C(C)C)C(=O)OCc2c1cc1n(c2=O)Cc2cc3ccccc3nc2-1 (stereo partly drawn) [Example 6] ({X3-CO}-[dP]LG[dL][dN][dV]-X2)" measurement_name=IC50 recorded_value=50
compound="CC[C@@]1(OC(=O)[C@H](NC(=O)[C@@H](CSC)NC(=O)[C@@H](CC(C)C)NC(=O)CNC(=O)[C@H](CC(C)C)NC(=O)[C@H]2CCCN2C(=S)Nc2ccc(OC3O[C@H](C)[C@H](O)[C@H](OC)[C@@H]3O)cc2)C(C)C)C(=O)OCc2c1cc1n(c2=O)Cc2cc3ccccc3nc2-1 (stereo partly drawn) [Example 8] (X1-[dP]LG[dL][dC](Me)[dV]-X2)" measurement_name=IC50 recorded_value=40
compound="CC[C@@]1(OC(=O)[C@H](NC(=O)[C@@H](CC(N)=O)NC(=O)[C@@H](CC(C)C)NC(=O)CNC(=O)[C@H](CC(C)C)NC(=O)[C@H]2CCCN2C(=S)Nc2ccc(OC3O[C@H](C)[C@H](O)[C@H](OC)[C@@H]3O)cc2)C(C)C)C(=O)OCc2c1cc1n(c2=O)Cc2cc3ccccc3nc2-1 (stereo partly drawn) [Example 5] (X1-[dP]LG[dL][dN][dV]-X2)" measurement_name=IC50 recorded_value=60
compound="CC[C@@]1(OC(=O)[C@H](NC(=O)[C@@H](Cc2c[nH]cn2)NC(=O)[C@@H](CC(C)C)NC(=O)CNC(=O)[C@H](CC(C)C)NC(=O)[C@H]2CCCN2C(=S)Nc2ccc(OC3O[C@H](C)[C@H](O)[C@H](OC)[C@@H]3O)cc2)C(C)C)C(=O)OCc2c1cc1n(c2=O)Cc2cc3ccccc3nc2-1.Cl (stereo partly drawn) [Example 12] (X1-[dP]LG[dL][dH][dV]-X2)" measurement_name=IC50 recorded_value=100
compound="CC[C@]1(OC(=O)[C@H](NC(=O)[C@@H](CCCCN)NC(=O)[C@@H](CC(C)C)NC(=O)CNC(=O)[C@H](CC(C)C)NC(=O)[C@H]2CCCN2C(=S)Nc2ccc(O[C@@H]3O[C@H](C)[C@H](O)[C@H](OC)[C@@H]3O)cc2)C(C)C)C(=O)OCc2c1cc1n(c2=O)Cc2cc3ccccc3nc2-1 [Example 10] (X6-[dP]LG[dL][dK][dV]-{Camptothecin(20R,20-O)})" measurement_name=IC50 recorded_value=70

====

Some compounds, each annotated with its measured pIC50.
Test system: SW 480 human large intestine cell line
Assay: Growth inhibition test (MTT) for cytotoxic properties on tumour cell lines
Format: cell-based
Conditions: SW480 cells, growth checked after day 6, read-out: IC50 of the cytotoxic action on tumour cell lines, SW480
pIC50: −log10 of the molar value. Where a SMILES comes first, the peptide text is derived from it. [ ]: non-standard residue; d: D form. The star is where a group is joined. X8 = C[C@H]1OC(Oc2ccc(NC(=S)*)cc2)[C@@H](O)[C@@H](OCC(=O)O)[C@H]1O; X4 = CO[C@H]1[C@H](O)[C@@H](Oc2ccc(NC(=S)*)cc2)O[C@@H](C)[C@H]1O; X1 = CO[C@H]1[C@@H](O)[C@@H](C)OC(Oc2ccc(NC(=S)*)cc2)[C@H]1O; X2 = CC[C@@]1(O*)C(=O)OCc2c1cc1n(c2=O)Cc2cc3ccccc3nc2-1
measurement name: pIC50

compound="CC[C@@]1(OC(=O)[C@@H](NC(=O)[C@@H]2CCCN2C(=O)[C@H](CC(C)C)NC(=O)CNC(=O)[C@H](CC(C)C)NC(=O)[C@@H]2CCCN2C(=S)Nc2ccc(O[C@H]3O[C@@H](C)[C@@H](O)[C@@H](OC)[C@@H]3O)cc2)C(C)C)C(=O)OCc2c1cc1n(c2=O)Cc2cc3ccccc3nc2-1 [Example 21] (X4-PLGLPV-X2)" assay_target="SW 480 human large intestine cell line" measurement_name=pIC50 recorded_value=7.00
compound="CC[C@@]1(OC(=O)[C@H](NC(=O)[C@@H](Cc2c[nH]cn2)NC(=O)CNC(=O)[C@H](CC(C)C)NC(=O)[C@H]2CCCN2C(=S)Nc2ccc(OC3O[C@H](C)[C@H](O)[C@H](OC)[C@@H]3O)cc2)C(C)C)C(=O)OCc2c1cc1n(c2=O)Cc2cc3ccccc3nc2-1 (stereo partly drawn) [Example 1]" assay_target="SW 480 human large intestine cell line" measurement_name=pIC50 recorded_value=6.82
compound="CC[C@@]1(OC(=O)[C@H](NC(=O)[C@@H](Cc2c[nH]cn2)NC(=O)[C@@H](CC(C)C)NC(=O)CNC(=O)[C@H](CC(C)C)NC(=O)[C@H]2CCCN2C(=S)Nc2ccc(OC3O[C@H](C)[C@H](O)[C@H](OC)[C@@H]3O)cc2)C(C)C)C(=O)OCc2c1cc1n(c2=O)Cc2cc3ccccc3nc2-1.Cl (stereo partly drawn) [Example 12] (X1-[dP]LG[dL][dH][dV]-X2)" assay_target="SW 480 human large intestine cell line" measurement_name=pIC50 recorded_value=6.82
compound="CC[C@@]1(OC(=O)[C@@H](NC(=O)[C@H](Cc2ccccc2)NC(=O)[C@H](CC(C)C)NC(=O)CNC(=O)[C@H](CC(C)C)NC(=O)[C@@H]2CCCN2C(=S)Nc2ccc(O[C@H]3O[C@@H](C)[C@@H](O)[C@@H](OC)[C@@H]3O)cc2)C(C)C)C(=O)OCc2c1cc1n(c2=O)Cc2cc3ccccc3nc2-1 [Example 16] (X4-PLGLFV-X2)" assay_target="SW 480 human large intestine cell line" measurement_name=pIC50 recorded_value=7.22
compound="CC[C@@]1(OC(=O)[C@@H](NC(=O)[C@H](CCC(=O)O)NC(=O)[C@H](CC(C)C)NC(=O)CNC(=O)[C@H](CC(C)C)NC(=O)[C@@H]2CCCN2C(=S)Nc2ccc(O[C@H]3O[C@@H](C)[C@@H](O)[C@@H](OC)[C@@H]3O)cc2)C(C)C)C(=O)OCc2c1cc1n(c2=O)Cc2cc3ccccc3nc2-1 [Example 19] (X4-PLGLEV-X2)" assay_target="SW 480 human large intestine cell line" measurement_name=pIC50 recorded_value=6.70
compound="CC[C@@]1(OC(=O)[C@H](NC(=O)[C@@H](CC(N)=O)NC(=O)[C@@H](CC(C)C)NC(=O)CNC(=O)[C@H](CC(C)C)NC(=O)[C@H]2CCCN2C(=S)Nc2ccc(OC3O[C@H](C)[C@H](O)[C@H](OCC(=O)O)[C@@H]3O)cc2)C(C)C)C(=O)OCc2c1cc1n(c2=O)Cc2cc3ccccc3nc2-1 (stereo partly drawn) [Example 23] (X8-[dP]LG[dL][dN][dV]-X2)" assay_target="SW 480 human large intestine cell line" measurement_name=pIC50 recorded_value=6.70
